Answer each item with its documented IC50.
# assay system: MLLT3 (Homo sapiens)
# Sequence (P42568 whole entry): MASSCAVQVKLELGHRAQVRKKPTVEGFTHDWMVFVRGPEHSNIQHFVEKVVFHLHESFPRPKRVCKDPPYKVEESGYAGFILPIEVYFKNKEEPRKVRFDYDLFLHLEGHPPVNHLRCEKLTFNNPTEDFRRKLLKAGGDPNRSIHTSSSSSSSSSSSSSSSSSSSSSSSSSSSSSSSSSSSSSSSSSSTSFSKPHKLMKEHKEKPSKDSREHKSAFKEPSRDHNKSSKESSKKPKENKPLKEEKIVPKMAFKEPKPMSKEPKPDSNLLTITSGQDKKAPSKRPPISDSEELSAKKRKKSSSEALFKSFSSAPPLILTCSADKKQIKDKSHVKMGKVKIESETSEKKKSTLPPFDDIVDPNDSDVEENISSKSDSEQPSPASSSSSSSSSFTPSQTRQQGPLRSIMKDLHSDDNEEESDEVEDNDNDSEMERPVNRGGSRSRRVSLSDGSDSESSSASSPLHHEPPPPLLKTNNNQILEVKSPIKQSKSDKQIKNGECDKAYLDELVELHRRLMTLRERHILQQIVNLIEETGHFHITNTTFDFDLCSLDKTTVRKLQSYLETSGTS
# assay overview: HTRF IC50 determination assay, MLLT3 / H3K9cro peptide displacement
# run conditions: read-out: MLLT3 assay IC50, 6His tagged MLLT3, biotinylated H3K9cro peptide, compound 20 μM to 20 nM, 11 data points in duplicate

Provide IC50 values for the following items, in order.
1. CO[C@@H]1C[C@@H](c2cn3cc(NC(=O)c4ccc5c(cnn5C)c4)ncc3n2)N(C)C1 (stereo in doubt) [Example 104]
2. CO[C@H]1C[C@H](c2cn3cc(NC(=O)c4ccc5c(cnn5C)c4)ncc3n2)N(C)C1 (stereo in doubt) [Example 85]
3. C[C@@H]1C[C@H](c2cn3cc(NC(=O)c4ccc5c(cnn5C)c4)ncc3n2)N(C)C1 (relative stereo) [Example 90]
4. CO[C@@H]1C[C@H](c2cn3cc(NC(=O)c4ccc5c(cnn5C)c4)ncc3n2)N(C)C1 (stereo in doubt) [Example 103]
5. C[C@H]1C[C@H](c2cn3cc(NC(=O)c4ccc5c(cnn5C)c4)ncc3n2)N(C)C1 (relative stereo) [Example 89]
6. CO[C@H]1C[C@@H](c2cn3cc(NC(=O)c4ccc5c(cnn5C)c4)ncc3n2)N(C)C1 (stereo in doubt) [Example 86]

1: 1500 to 20000 nM; 2: 150 to 1500 nM; 3: 150 to 1500 nM; 4: 150 to 1500 nM; 5: 150 to 1500 nM; 6: 1500 to 20000 nM
